- Tested on: FXR:RXRa (NR concentration 270 nM, RXRa partner concentration 90 nM)
- Assay notes: PBM binding z-score (relative to random genomic background probes); higher = stronger binding; sequences stand for … in GC…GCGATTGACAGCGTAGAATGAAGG
Endpoint name: PBM binding z-score
Just the number.

Example results:
GCTAGTTGGTCAGTAAAAGGTCACATACCGGTCG = 2.76
ATCTCTAGGTAACGAGTTCAGTGAAAGAGAGGAC = 0.481
ATATGTAGGTTACATCCCGGTCATTCAGGCTATG = 1.09

Req: Form field - read-out: PBM binding z-score; system: FXR:RXRa (NR concentration 270 nM, RXRa partner concentration 90 nM); submitted item: TCGGCTAGGTCAGTTGGTCAGCTAACGAGCTGCC
Resp: 1.1

Req: Form field - read-out: PBM binding z-score; system: FXR:RXRa (NR concentration 270 nM, RXRa partner concentration 90 nM); submitted item: TAGCATAGGTCATGGGCCAGTATACCACGCGAAC
Resp: 6.75

Req: Form field - read-out: PBM binding z-score; system: FXR:RXRa (NR concentration 270 nM, RXRa partner concentration 90 nM); submitted item: AGAATGAGGTTATACGTAGATCAGTGAAGAAAGT
Resp: 1.96

###

- Tested on: LXRa:RXRa (NR concentration 270 nM, RXRa partner concentration 90 nM)
- Assay notes: PBM binding z-score (relative to random genomic background probes); higher = stronger binding; sequences stand for … in GC…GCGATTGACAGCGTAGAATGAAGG
Endpoint name: PBM binding z-score
Just the number.

Example results:
ACTAGTTGGTCAGCTGAGGTCACACAGAATTCGG = 3.32
TCTTGTAGATCGGCAGGTTAAGAAAGCTGGCCAA = 0.472

Req: For the sequence shown here, TAGCCTAGGTCATGCAGGCCAGTATAGTGTCGGC , give the reported PBM binding z-score.
Resp: 2.91

Req: For the sequence shown here, CGTCCAAGCTCAAAGGTCAGTGAAGAGATGACGG , give the reported PBM binding z-score.
Resp: 2.95

###

- Tested on: RARg homodimer (NR concentration 270 nM)
- Assay notes: PBM binding z-score (relative to random genomic background probes); higher = stronger binding; sequences stand for … in GC…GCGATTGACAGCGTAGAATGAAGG
So basically: PBM binding z-score at 2 or higher? That is Met. Lower than 2? That is Not met.

Req: Check if PBM binding z-score >= 2 (inclusive). Item: TTACCAAGGTGAAGGTCGTTGATCCCTCTGTAGA
Resp: Not met

Req: Check if PBM binding z-score >= 2 (inclusive). Item: CCTATTAGTTAACCATAAGGGCAACCGAAGCTCG
Resp: Not met

Req: Check if PBM binding z-score >= 2 (inclusive). Item: TCTCGGAGGACAGGAAAGGTCAGAGCTCGACATC
Resp: Met

Req: Check if PBM binding z-score >= 2 (inclusive). Item: CCTAGCAGGCCAATCTGGGTTACTCAAGGCTTGA
Resp: Not met

Req: Check if PBM binding z-score >= 2 (inclusive). Item: GCTGGCAGGCCATTTGGGTCACTCAATGACGGGC
Resp: Not met

Req: Check if PBM binding z-score >= 2 (inclusive). Item: CGTCTAAGGTCAGAGAGGTCAGTGAATGCCGAGT
Resp: Met
